Biological target: Y641N EZH2 (Homo sapiens, UniProt Q15910, Y641N)
Sequence (Q15910 whole entry Y641N): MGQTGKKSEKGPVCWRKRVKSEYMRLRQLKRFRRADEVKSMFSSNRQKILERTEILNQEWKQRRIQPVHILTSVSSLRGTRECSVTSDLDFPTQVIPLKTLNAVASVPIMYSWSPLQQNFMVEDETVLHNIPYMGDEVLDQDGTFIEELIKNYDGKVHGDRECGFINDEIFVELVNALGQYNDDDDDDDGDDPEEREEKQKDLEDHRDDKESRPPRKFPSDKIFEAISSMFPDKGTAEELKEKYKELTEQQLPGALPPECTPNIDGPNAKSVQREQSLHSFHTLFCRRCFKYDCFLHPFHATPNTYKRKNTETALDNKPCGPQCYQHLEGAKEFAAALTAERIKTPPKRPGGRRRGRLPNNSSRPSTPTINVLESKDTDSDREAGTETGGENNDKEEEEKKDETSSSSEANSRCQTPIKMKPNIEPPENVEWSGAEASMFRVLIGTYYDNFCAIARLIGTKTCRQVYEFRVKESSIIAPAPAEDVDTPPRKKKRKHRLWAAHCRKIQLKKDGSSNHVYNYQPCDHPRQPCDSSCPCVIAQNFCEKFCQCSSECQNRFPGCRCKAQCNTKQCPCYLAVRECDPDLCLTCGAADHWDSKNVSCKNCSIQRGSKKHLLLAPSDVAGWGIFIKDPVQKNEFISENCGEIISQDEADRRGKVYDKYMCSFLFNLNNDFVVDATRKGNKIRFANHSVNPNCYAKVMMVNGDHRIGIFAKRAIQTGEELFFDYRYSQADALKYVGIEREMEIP
Sequence (O75530 whole entry partner): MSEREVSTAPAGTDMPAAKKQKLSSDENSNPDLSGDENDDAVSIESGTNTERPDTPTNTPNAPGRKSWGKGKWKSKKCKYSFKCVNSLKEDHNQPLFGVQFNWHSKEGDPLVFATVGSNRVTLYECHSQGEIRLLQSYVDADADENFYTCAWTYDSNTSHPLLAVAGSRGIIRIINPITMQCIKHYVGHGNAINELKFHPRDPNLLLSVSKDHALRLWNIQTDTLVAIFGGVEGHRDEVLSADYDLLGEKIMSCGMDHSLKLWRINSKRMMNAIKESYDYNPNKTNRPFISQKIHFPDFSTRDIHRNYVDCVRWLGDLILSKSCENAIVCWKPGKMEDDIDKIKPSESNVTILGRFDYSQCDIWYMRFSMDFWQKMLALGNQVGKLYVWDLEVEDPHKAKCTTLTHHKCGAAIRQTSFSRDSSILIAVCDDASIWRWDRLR
Sequence (Q15022 whole entry partner): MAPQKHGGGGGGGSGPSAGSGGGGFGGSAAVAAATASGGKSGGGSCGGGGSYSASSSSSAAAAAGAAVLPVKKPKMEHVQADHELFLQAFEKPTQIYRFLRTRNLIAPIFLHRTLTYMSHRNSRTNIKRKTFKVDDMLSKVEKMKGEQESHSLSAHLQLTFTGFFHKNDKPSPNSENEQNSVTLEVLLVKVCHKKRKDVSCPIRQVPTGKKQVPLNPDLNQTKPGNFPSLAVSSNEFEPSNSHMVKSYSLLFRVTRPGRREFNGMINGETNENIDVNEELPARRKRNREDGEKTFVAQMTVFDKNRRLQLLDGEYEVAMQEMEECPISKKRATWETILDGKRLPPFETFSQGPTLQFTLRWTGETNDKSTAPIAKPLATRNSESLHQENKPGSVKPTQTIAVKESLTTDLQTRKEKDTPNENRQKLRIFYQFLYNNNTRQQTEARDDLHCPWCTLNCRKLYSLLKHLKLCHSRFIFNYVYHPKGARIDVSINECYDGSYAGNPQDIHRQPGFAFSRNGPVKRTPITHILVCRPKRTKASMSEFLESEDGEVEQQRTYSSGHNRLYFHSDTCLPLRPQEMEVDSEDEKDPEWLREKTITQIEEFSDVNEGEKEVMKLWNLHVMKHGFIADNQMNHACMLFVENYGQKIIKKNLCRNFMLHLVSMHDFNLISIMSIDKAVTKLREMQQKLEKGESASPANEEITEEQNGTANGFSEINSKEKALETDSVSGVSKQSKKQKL
Test: Y641N EZH2 assay: performed as the EZH2 assay, using reconstituted H3K27Me2 oligonucleosomes as substrate
Experimental: Assays were carried out by mixing rPRC2 together with biotinylated oligonucleosome substrates in the presence of the radio-labeled enzyme co-factor, S-adenosyl-L-methionine (^3H SAM) (Perkin Elmer) and monitoring the enzymatically mediated transfer of tritiated methyl groups from ^3H SAM to histone lysine residues. […]
pIC50: −log10 of the molar value.
Assign pIC50 to each entry below.

Use these answered entries as a reference point.
Compound	pIC50
CC1(C)CC(NC(=O)c2ccc(Oc3cccc(-c4ccc(O)nc4)c3C#N)c(Cl)c2)CC(C)(C)N1 [Compound I-558]	> 5.30
CC1(C)CC(NC(=O)c2ccc(Oc3cccc4cnccc34)c(Cl)c2)CC(C)(C)N1 [Compound I-324]	4.70 to 5.30
CNCc1cccc(Oc2ccc(C(=O)NC3CC(C)(C)NC(C)(C)C3)cn2)c1 [Compound I-415]	< 4.10

Now for a further compound.
Query: Form field - read-out: pIC50; system: Y641N EZH2 (Homo sapiens, UniProt Q15910, Y641N); submitted item: CC1(C)CC(NC(=O)c2ccc(Oc3cccc(-c4cccnc4)c3C#N)c(Cl)c2)CC(C)(C)N1 [Compound I-308]
Response: > 5.30

###

Target: Y641N EZH2 (Homo sapiens, UniProt Q15910, Y641N)
Assay: Y641N EZH2 assay: performed as the EZH2 assay, using reconstituted H3K27Me2 oligonucleosomes as substrate
Type: biochemical
pIC50: −log10 of the molar value.
Assign pIC50 to each entry below.

Use these answered entries as a reference point.
Compound	pIC50
CCc1cccc(Oc2ccc(C(=O)NC3CC(C)(C)NC(C)(C)C3)cc2Cl)c1-c1ccncc1	< 4.10
Cc1cc(C(=O)NC2CC(C)(C)NC(C)(C)C2)ccc1Oc1ccccc1C#N	4.70 to 5.30
CC1(C)CC(N2Cc3cc(Oc4ccccc4C#N)c(Cl)cc3C2=O)CC(C)(C)N1	< 4.10
CC1(C)CC(NC(=O)c2ccc(Oc3cccc(-c4ccncc4)c3C#N)c(Cl)c2)CC(C)(C)N1	> 5.30

Provide pIC50 values for the following items, in order.
1. CC1(C)CC(NC(=O)c2ccc(Oc3ccccc3C#N)c(CCc3ccccc3)c2)CC(C)(C)N1
2. CC1(C)CC(NC(=O)c2ccc(Oc3cccc(-c4ccnnc4)c3C#N)c(Cl)c2)CC(C)(C)C1O (stereo not shown)
3. CC1(C)CC(NC(=O)c2ccc(Oc3cccc(-c4cccnc4)c3C#N)c(Br)c2)CC(C)(C)N1

Response:
["4.70 to 5.30", "4.10 to 4.70", "> 5.30"]

###

Target: EZH2 (Homo sapiens, UniProt Q15910)
Sequence (Q15910 whole entry): as the sequence (Q15910 whole entry Y641N) above, with N641Y counted along it
Sequence (O75530 whole entry partner): as the sequence (O75530 whole entry partner) above
Sequence (Q15022 whole entry partner): as the sequence (Q15022 whole entry partner) above
Assay: EZH2 assay: rPRC2 with biotinylated oligonucleosome substrates and 3H SAM, FlashPlate scintillation counting, IC50
Assay type: biochemical
Details: rPRC2, biotinylated oligonucleosome substrates, 3H SAM; read-out: EZH2 IC50
pIC50: −log10 of the molar value.
Measured quantity: pIC50

Use these answered entries as a reference point.
Molecule	Target entity	pIC50
CN1CCC(NC(=O)c2ccc(Oc3ccccc3C#N)c(Cl)c2)CC1 [Compound I-193]	EZH2 (Homo sapiens, UniProt Q15910)	< 4.10
N#Cc1ccccc1Oc1ccc(C(=O)NC2CCN(CCN)CC2)cc1Cl [Compound I-460]	EZH2 (Homo sapiens, UniProt Q15910)	< 4.10
COc1ccc(-c2cccc(Oc3ccc(C(=O)NC4CC(C)(C)NC(C)(C)C4)cc3Cl)c2C#N)cn1 [Compound I-366]	EZH2 (Homo sapiens, UniProt Q15910)	> 5.30

Provide pIC50 values for the following items, in order.
1. CC1(C)CC(NC(=O)c2ccc(Oc3cccc(-c4ncccn4)c3C#N)c(Cl)c2)CC(C)(C)N1 [Compound I-445]
2. COc1ccc(OCc2ccc(C(=O)NC3CC(C)(C)NC(C)(C)C3)cc2)cc1 [Compound I-63]
3. CC1(C)CC(NC(=O)c2ccc(-c3ccc4cnccc4c3)c(Cl)c2)CC(C)(C)N1 [Compound I-376]
4. Cc1cc(C)cc(OCc2ccc(C(=O)NC3CC(C)(C)NC(C)(C)C3)cc2)c1 [Compound I-9]
5. COc1cncc(-c2ccccc2Oc2ccc(C(=O)NC3CC(C)(C)NC(C)(C)C3)cc2Cl)c1 [Compound I-288]

Response:
["> 5.30", "4.10 to 4.70", "4.10 to 4.70", "4.70 to 5.30", "> 5.30"]
